Source listed as PubChem BioAssay.

- Test system: Fibrinogen (Alexa647-labelled)
- procedureText: Alexa647-fibrinogen binding to printed small molecules – biochemical, small-molecule microarray, 635/667 nm fluorescence, artefact control for SMM control-protein annotation, profiling panel (AID 1131);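 note: z-score merges 667 nm fluorescence with per-spot signal-to-noise over triplicate slides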
- measurementParameters: fibrinogen-A647 binding fluorescence, higher = more signal
Criterion: composite z-score meeting or surpassing 0.07. Met: 1.0. Not met: 0.0.

>  <compound>
O=c1cccc(-c2ccc([N+](=O)[O-])cc2)o1

>  <discreteLabel>
0.0

$$$$
>  <compound>
O=C1NC(=O)C2C1C=CC(C(O)c1ccco1)N2Nc1ccc(Cl)cc1Cl (stereo unspecified)

>  <discreteLabel>
0.0

$$$$
>  <compound>
CCOc1cc(C(O)C2C=CC3C(=O)NC(=O)C3N2Nc2ccc(Cl)cc2Cl)ccc1O (stereo unspecified)

>  <discreteLabel>
1.0

$$$$
>  <compound>
CCCC=C(CCC)[C@@H](NS(=O)(=O)CC12CCC(CC1=O)C2(C)C)c1ccc(C(=O)OC)cc1 (stereo partly specified)

>  <discreteLabel>
1.0

$$$$
>  <compound>
CCCCC[C@H]1OC[C@@]23C=C(Br)[C@@H](CC12)[C@@]1(CO1)C3=O (stereo partly specified)

>  <discreteLabel>
0.0

$$$$
>  <compound>
C=CCNC(=O)[C@@H]1[C@H]2C(=O)O[C@H](c3ccccc3)[C@H](c3ccccc3)N2[C@H](c2ccccc2OCCO)[C@@]12C(=O)Nc1ccc(C#CCC(C(=O)OC)C(=O)OC)cc12

>  <discreteLabel>
0.0

$$$$
>  <compound>
CC(C)c1ccc(NN2C(C(O)c3ccc(C#N)cc3)C=CC3C(=O)N(c4ccccc4)C(=O)C32)cc1 (stereo unspecified)

>  <discreteLabel>
1.0

$$$$
>  <compound>
COc1ccc(C#Cc2ccc3c(c2)[C@]2(C(=O)N3)[C@H](C(=O)O)[C@H]3C(=O)O[C@H](c4ccccc4)[C@H](c4ccccc4)N3[C@@H]2c2ccc(O)cc2)cc1

>  <discreteLabel>
0.0

$$$$
>  <compound>
CC(C)C(CO)N1C(=O)[C@@H]2C3C(=O)OCCC/C=C\[C@H]3OC23C=CCN(Cn2nnc4ccccc42)C(=O)[C@@H]13 (stereo partly specified)

>  <discreteLabel>
0.0

$$$$
>  <compound>
CCCNC(=O)[C@@]1(Sc2ccc(C)cc2)CC(=O)N(C2Cc3ccccc3C2)[C@@H]1c1ccc(CO)cc1I

>  <discreteLabel>
1.0

$$$$
>  <compound>
CC(C)C(O)C1C=CC2C(=O)N(c3ccccc3)C(=O)C2N1Nc1ccccc1 (stereo unspecified)

>  <discreteLabel>
1.0

$$$$
>  <compound>
Cc1ccc(S[C@]2(C(=O)NCc3ccccc3)CC(=O)N(C3CCCCC3)[C@@H]2c2ccc(CO)cc2I)cc1

>  <discreteLabel>
1.0

$$$$
>  <compound>
CCCCCN1CC=CC23O[C@@H]4/C=C\CCCOC(=O)C4[C@H]2C(=O)N(C(C)CO)[C@@H]3C1=O (stereo partly specified)

>  <discreteLabel>
1.0

$$$$
>  <compound>
CC1=C2[C@@H](CCc3ccccc3)OB(O)C[C@@H]2[C@@H]2C(=O)N(C)C(=O)[C@@H]2C1

>  <discreteLabel>
1.0

$$$$
>  <compound>
COC(=O)C1=CC(CCCO)=CC(c2ccc(CN3CCCC3)cc2)N(Cc2cccc(OC(F)(F)F)c2)C=C1C(=O)OC (stereo unspecified)

>  <discreteLabel>
1.0

$$$$
>  <compound>
[N-]=[N+]=Nc1ccccc1C[C@]1(C(=O)O)COC(c2ccc(OCCCO)cc2)=N1

>  <discreteLabel>
0.0

$$$$
>  <compound>
C=C[C@@H](CO)N(Cc1ccc(OC)cc1)S(=O)(=O)c1ccc(Br)cc1

>  <discreteLabel>
0.0

$$$$
>  <compound>
COc1ccc(C#Cc2ccc3c(c2)[C@]2(C(=O)N3)[C@H](c3ccc(O)cc3)N3[C@H](c4ccccc4)[C@H](c4ccccc4)OC(=O)[C@H]3[C@@H]2C(=O)Nc2nc3ccccc3s2)cc1

>  <discreteLabel>
1.0

$$$$
>  <compound>
CCOC(=O)C[C@H]1[C@H](OC(=O)Cc2ccc3c(c2)OCO3)[C@@H](NC(=O)c2ccc3ccccc3n2)c2cc(OCCCO)ccc2N1C(=O)c1ccc2ccccc2n1

>  <discreteLabel>
1.0

$$$$
>  <compound>
C=CCNC(=O)[C@@H]1[C@H]2C(=O)O[C@H](c3ccccc3)[C@H](c3ccccc3)N2[C@H](c2ccccc2OCCO)[C@@]12C(=O)Nc1ccc(C#CCCO)cc12

>  <discreteLabel>
1.0

$$$$
>  <compound>
COC(=O)[C@@]1(Cc2ccc(F)cc2)[C@H]2c3cc(C(=O)N4CCCC4)n(CCc4c[nH]c5ccccc45)c3C[C@H]2CN1C(=O)c1ccccc1

>  <discreteLabel>
1.0

$$$$
